We begin with a simple list: items and their reported IC50.
Target: human CRF1 receptors (Homo sapiens)
Construct: the native CRF1 receptors present on the human retinoblastoma cell line Y79; endogenous in cells
Sequence (P34998 24-415): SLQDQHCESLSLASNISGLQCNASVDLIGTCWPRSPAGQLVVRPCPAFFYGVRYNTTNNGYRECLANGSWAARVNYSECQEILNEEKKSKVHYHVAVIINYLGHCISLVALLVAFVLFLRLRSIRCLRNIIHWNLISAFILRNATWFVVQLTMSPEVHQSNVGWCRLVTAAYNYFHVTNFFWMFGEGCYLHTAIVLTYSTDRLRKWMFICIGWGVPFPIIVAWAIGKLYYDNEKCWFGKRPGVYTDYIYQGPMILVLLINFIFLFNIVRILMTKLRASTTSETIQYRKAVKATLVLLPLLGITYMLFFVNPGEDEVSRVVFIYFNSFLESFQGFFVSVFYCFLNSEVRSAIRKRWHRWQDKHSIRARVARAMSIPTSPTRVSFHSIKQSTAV
Assay: hCRF1 binding assay, 125I-o-CRF competition, Y79 cell membranes
Conditions: native human CRF1 receptors, Y79 retinoblastoma cells; n=3; read-out: IC50, inhibition of 125I-o-CRF binding to Y79 membrane
Give the number; nM is assumed, so skip it.

Which value of IC50 has been reported for COC[C@H](C1CC1)n1cc(C#N)nc(Nc2cc(C)c(OC(F)F)nc2C)c1=O in the records?
1.81

IC50 for COCC(COC)Nc1nc(C)nc2c(-c3ccc(Cl)cc3Cl)c(C)nn12 [DMP696] ?
1.71

Hello, the source for this data is patent US8372847B2, in case you need it.
